Just for reference, patent US4320136A is where these values come from.

System: necrosis and inflammation of the stomach caused by ethanol
TEST PROTOCOL: protection of rat stomach from ethanol-caused necrosis and inflammation (cytoprotection, oral)
Assay type: in vivo, rat (fasted, male)
CONDITION SUMMARY: interval between compound and ethanol at which greatest protection is observed
Method: Some differences in the cytoprotective properties of these optical isomers are indicated by data in Table I. Using a method similar to that of Robert [U.S. Pat. No. 4,097,603 (1978)], fasted, male rats were treated with 8-azaprostanoids orally and various times later they were treated orally with 1.0 ml of absolute ethanol. The rats were sacrificed after ethanol administration and the stomachs were removed, inspected, and rated. […]
ASSAY READOUT: Peak Time (min)
State just the number; it will be interpreted in min.

**Q:** Item under review: CCCCCCC(F)(F)C(O)/C=C/C1CCC(=O)N1CCCCCCC(=O)O (racemic) [Compound 7] . Reported Peak Time?
**A:** 15

---
**Q:** Item under review: CCCCCCC(F)(F)[C@H](O)/C=C/[C@H]1CCC(=O)N1CCCCCCC(=O)O [7l (15R)] . Reported Peak Time?
**A:** 15

**Q:** Would you mind doing CCCCC(F)(F)C(O)/C=C/C1CCC(=O)N1CCCCCCC(=O)OC(C)(C)C (racemic) [Compound 13] as well?
**A:** 15

**Q:** Would you mind doing CCCCC[C@H](O)/C=C/[C@H]1[C@H](O)CC(=O)[C@@H]1CCCCCCC(=O)O [PGE1, prostaglandin E1, reference compound] as well?
**A:** 5

**Q:** Would you mind doing CCCCC(F)(F)C(O)/C=C/C1CCC(=O)N1CCCCCCC(=O)O (racemic) [Compound 14] as well?
**A:** 60

**Q:** Would you mind doing CCCCC(F)(F)C(O)/C=C/C1CCC(=O)N1CCCCCCC(=O)OC (stereo not drawn) [Compound 15] as well?
**A:** 15

----------
System: necrosis and inflammation of the stomach caused by ethanol
TEST PROTOCOL: protection of rat stomach from ethanol-caused necrosis and inflammation (cytoprotection, oral)
Type: in vivo, rat (fasted, male)
CONDITION SUMMARY: interval between compound and ethanol at which greatest protection is observed
ASSAY READOUT: Peak Time
I'd appreciate it if you included the unit after the number.

**Q:** Item under review: CCCCCC(O)C=CC1CCC(=O)N1CCCCCCC(=O)O (stereo not drawn) [reference compound] . Reported Peak Time?
**A:** 1 h

---
**Q:** Item under review: CCCCCCC(F)(F)C(O)/C=C/C1CCC(=O)N1CCCCCCC(=O)OC (racemic) . Reported Peak Time?
**A:** 0.25 h

**Q:** Would you mind doing CCCCCC(O)C=CC1CCC(=O)N1CCCCCCC(=O)OC (stereo not drawn) [reference compound] as well?
**A:** 1 h
